Data origin, for the record: PubChem BioAssay AID624167

Test: Peg3 promoter luciferase inhibitors, potency, dose response, cell-based, HeLa, CREF/GAPDH counter-screen panel (AID 624167)
Conditions: CREF/GAPDH counter-screens; run 1, dose range 1, at 100 µM (top of the series)

MOLECULE	inhibition, %
Cc1ccc(OCC(=O)c2cc(C)n(Cc3ccco3)c2C)c([N+](=O)[O-])n1	70.8
O=C(c1ccco1)N1CCN(C(c2ccccc2Cl)c2nnnn2Cc2cccs2)CC1 (stereo unspecified)	69.4
Cc1cc(C)c(C)c(S(=O)(=O)N2CCN(C(=O)c3cc(=O)[nH]c4ccccc34)CC2)c1C	71.8
CCCC(=O)NC(c1ccc(Cl)cc1)c1ccc2cccnc2c1O (stereo unspecified)	70.4
CN1OC[C@@H]2CN(S(=O)(=O)c3cccc(C(F)(F)F)c3)[C@H](c3ccc(-c4cc5ccccc5o4)cc3)C[C@@H]21	70.1
CC(=O)NC(c1ccc(Cl)cc1)c1ccc2cccnc2c1O (stereo unspecified)	69.3
